system: Human mTOR (FLAG-TOR) (Homo sapiens, UniProt P42345)
Construct: FLAG
procedureSummary: Human mTOR kinase assay with purified enzyme, DELFIA format
Assay type: biochemical
measurementConditions: purified human mTOR enzyme, DELFIA format
valueType: IC50 (nM)
Number only, in nM; omit the unit.

So for CS(=O)(=O)N1CCN(Cc2cc3nc(-c4ccc(NC(=O)Nc5ccncc5)cc4)nc(N4CC5CCC(C4)O5)c3s2)CC1 [Example 434] , the logged IC50 turned out to be 0.445

So for COCC(COC)n1ncc2c(N3CC4CCC(C3)O4)nc(-c3ccc(NC(=O)Nc4cccnc4)cc3)nc21 [Example 326] , the logged IC50 turned out to be 2.65

So for CNC(=O)Nc1ccc(-c2nc(N3C[C@H]4C[C@@H]3CO4)c3cnn(CC(F)(F)F)c3n2)cc1 [Example 341] , the logged IC50 turned out to be 91

So for CN1CCN(C2CCC(n3ncc4c(N5CC6CCC(C5)O6)nc(-c5ccc(NC(=O)Nc6cccnc6)cc5)nc43)CC2)CC1 (stereo not shown) [Example 330] , the logged IC50 turned out to be 0.405

###

system: PI3K (Homo sapiens)
Construct: PI3 Kinase β IC50; other: PI3 Kinase β; other: PI3 Kinase β isoform, fluorescence polarization
Sequence (P42338 whole entry, canonical isoform): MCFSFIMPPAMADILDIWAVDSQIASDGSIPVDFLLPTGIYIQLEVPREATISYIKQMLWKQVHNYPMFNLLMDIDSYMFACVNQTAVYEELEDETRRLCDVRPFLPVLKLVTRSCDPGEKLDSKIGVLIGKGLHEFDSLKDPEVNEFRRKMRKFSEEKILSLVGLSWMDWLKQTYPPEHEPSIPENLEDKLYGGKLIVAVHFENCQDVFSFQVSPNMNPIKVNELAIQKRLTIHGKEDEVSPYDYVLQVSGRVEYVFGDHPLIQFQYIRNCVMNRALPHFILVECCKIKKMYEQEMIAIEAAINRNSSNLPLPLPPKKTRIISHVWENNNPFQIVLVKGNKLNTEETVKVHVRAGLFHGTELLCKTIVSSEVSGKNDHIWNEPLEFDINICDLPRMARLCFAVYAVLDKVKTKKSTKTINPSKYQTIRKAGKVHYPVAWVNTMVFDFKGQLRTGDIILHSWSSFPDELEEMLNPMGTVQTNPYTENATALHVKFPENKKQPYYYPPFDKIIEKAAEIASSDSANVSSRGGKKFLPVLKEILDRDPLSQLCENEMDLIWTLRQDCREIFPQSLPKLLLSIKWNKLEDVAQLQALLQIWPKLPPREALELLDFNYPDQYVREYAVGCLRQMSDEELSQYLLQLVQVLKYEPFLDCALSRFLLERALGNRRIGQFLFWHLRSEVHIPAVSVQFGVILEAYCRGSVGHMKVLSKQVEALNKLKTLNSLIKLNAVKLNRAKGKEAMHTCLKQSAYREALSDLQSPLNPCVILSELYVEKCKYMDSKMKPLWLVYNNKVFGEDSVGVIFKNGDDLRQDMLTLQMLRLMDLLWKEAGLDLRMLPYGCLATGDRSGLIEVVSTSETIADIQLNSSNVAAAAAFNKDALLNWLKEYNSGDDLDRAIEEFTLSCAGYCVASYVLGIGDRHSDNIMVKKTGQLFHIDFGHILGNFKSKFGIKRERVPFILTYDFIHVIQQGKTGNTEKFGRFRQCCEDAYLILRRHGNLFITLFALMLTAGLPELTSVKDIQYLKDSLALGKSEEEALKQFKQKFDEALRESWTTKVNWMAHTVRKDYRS
procedureSummary: Fluorescence polarization assay for PI3K
Assay type: biochemical
measurementConditions: PI3 Kinase β
pIC50: −log10 of the molar value.
valueType: pIC50

The measured pIC50 that O=C(Nc1ccc(-c2nc(N3CC4CCC(C3)O4)c3cnn(CC(F)(F)F)c3n2)cc1)OCCO showed for PI3K (Homo sapiens) is < 5.00

The measured pIC50 that CNC(=O)Nc1ccc(-c2nc(N3CC4CCC(C3)O4)c3cnn(C4CCC5(CC4)OCCO5)c3n2)cc1 showed for PI3K (Homo sapiens) is < 5.00

###

system: Human mTOR (FLAG-TOR) (Homo sapiens, UniProt P42345)
Construct: FLAG
procedureSummary: Human mTOR kinase assay with purified enzyme, DELFIA format
Type: biochemical
Under this convention, label 1 denotes IC50 strictly below 0.4 nM and label 0 denotes IC50 at or above 0.4 nM.

Query: Lab note: confirm whether the reported IC50 for this compound is below 0.4 nM, equality not counting. compound: Cn1ncc2c(N3CC4CCC(C3)O4)nc(-c3ccc(NC(=O)NC4CC4)cc3)nc21 [Example 53]
Reply: label 0

Query: Lab note: confirm whether the reported IC50 for this compound is below 0.4 nM, equality not counting. compound: CC(C)OC(=O)N1CCC(n2ncc3c(N4CC5CCC(C4)O5)nc(-c4ccc(NC(=O)NC5CC5)cc4)nc32)CC1 [Example 70]
Reply: label 0

Query: Lab note: confirm whether the reported IC50 for this compound is below 0.4 nM, equality not counting. compound: CCOC(=O)N1CCC(n2ncc3c(N4CC5CCC(C4)O5)nc(-c4ccc(NC(=O)NCCF)cc4)nc32)CC1 [Example 32]
Reply: label 1

Query: Lab note: confirm whether the reported IC50 for this compound is below 0.4 nM, equality not counting. compound: CCNC(=O)Nc1ccc(-c2nc(N3CC4CCC(C3)O4)c3cnn(C4CCN(C(=O)OC(C)C)CC4)c3n2)cc1 [Example 67]
Reply: label 1

Query: Lab note: confirm whether the reported IC50 for this compound is below 0.4 nM, equality not counting. compound: O=C(Nc1ccc(CO)cc1)Nc1ccc(-c2nc(N3C[C@@H]4C[C@H]3CO4)c3cnn(CC(F)(F)F)c3n2)cc1 [Example 294]
Reply: label 0

Query: Lab note: confirm whether the reported IC50 for this compound is below 0.4 nM, equality not counting. compound: CNC(=O)Nc1ccc(-c2nc(N3CC4CCC(C3)O4)c3cnn(C4CCC5(CC4)OCC(C)(C)CO5)c3n2)cc1 [Example 152]
Reply: label 0
